# TARGET OR TEST SYSTEM: Recombinant human integrin ανβ8 (Homo sapiens, UniProt P06756+P26012)
# Sequence (P06756 31-992 limits assumed): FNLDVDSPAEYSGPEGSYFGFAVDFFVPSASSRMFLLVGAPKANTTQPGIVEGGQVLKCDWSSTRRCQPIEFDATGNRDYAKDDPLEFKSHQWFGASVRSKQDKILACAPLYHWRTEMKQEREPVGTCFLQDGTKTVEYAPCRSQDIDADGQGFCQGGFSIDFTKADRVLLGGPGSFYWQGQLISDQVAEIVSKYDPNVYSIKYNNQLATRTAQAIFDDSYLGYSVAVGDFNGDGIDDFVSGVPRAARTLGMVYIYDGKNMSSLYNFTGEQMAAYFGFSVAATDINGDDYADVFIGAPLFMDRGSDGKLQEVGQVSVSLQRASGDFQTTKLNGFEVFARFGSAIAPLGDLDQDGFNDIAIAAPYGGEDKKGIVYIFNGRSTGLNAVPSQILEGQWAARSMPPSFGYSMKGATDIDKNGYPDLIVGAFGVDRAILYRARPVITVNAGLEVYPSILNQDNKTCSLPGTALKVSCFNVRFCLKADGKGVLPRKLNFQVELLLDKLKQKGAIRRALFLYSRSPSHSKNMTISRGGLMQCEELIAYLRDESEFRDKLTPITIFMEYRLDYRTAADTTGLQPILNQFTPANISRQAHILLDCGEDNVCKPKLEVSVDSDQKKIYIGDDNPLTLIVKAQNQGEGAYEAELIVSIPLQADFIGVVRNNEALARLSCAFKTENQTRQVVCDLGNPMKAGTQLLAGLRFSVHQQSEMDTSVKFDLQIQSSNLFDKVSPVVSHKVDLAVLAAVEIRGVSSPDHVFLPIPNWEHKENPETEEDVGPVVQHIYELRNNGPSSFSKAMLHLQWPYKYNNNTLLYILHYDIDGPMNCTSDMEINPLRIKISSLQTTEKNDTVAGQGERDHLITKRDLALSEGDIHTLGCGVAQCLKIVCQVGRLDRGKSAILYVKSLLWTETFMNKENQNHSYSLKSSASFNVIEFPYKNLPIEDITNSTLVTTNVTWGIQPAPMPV
# Sequence (P26012 43-684 limits assumed): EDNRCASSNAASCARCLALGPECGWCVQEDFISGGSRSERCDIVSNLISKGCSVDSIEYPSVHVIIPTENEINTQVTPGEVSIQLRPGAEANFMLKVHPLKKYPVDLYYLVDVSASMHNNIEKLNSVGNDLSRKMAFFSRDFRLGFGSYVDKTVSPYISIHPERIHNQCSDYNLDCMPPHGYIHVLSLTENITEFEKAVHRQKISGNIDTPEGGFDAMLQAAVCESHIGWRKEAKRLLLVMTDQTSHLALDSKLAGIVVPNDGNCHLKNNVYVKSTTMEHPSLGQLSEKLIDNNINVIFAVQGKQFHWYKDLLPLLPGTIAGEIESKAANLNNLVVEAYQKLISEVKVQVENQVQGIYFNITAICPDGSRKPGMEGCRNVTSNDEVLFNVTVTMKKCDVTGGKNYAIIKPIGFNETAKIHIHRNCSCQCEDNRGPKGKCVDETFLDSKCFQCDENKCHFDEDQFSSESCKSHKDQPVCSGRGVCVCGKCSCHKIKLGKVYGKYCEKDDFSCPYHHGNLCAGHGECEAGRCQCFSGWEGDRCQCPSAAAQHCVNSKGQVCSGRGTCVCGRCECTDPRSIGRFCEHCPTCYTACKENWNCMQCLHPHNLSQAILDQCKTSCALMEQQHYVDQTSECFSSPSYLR
# PROTOCOL NOTES: Solid Phase Receptor Assay (SPRA) for ανβ8 function
# PROTOCOL CONDITIONS: plate-bound human LAP; read-out: αvβ8 SPRA IC50
Where a name gives a salt, the structure may show the parent alone.
Threshold 0.09 µM: IC50 strictly smaller gives YES, otherwise NO.

Example results:
COMPOUND: Cn1nc(CC(CC(=O)O)c2cc(F)cc(C(C)(C)C)c2)cc1OCCc1ccc2c(n1)NCCC2 (centres unmarked) [Example 38]
ASSIGNED LABEL: NO

COMPOUND: Cn1nc(CC(CC(=O)O)c2ccc(F)c(Br)c2)cc1OCCc1ccc2c(n1)NCCC2 (centres unmarked) [Example 5]
ASSIGNED LABEL: YES

COMPOUND: COc1ccc(C(CC(=O)O)Cc2cc(OCCc3ccc4c(n3)NCCC4)n(C)n2)cc1F (centres unmarked) [Example 3]
ASSIGNED LABEL: NO

COMPOUND: Cn1nc(CC(CC(=O)O)c2ccc(C#N)c(F)c2)cc1OCCc1ccc2c(n1)NCCC2 (centres unmarked) [Example 8]
ASSIGNED LABEL: YES

COMPOUND: Cn1nc(CC(CC(=O)O)c2ccc(F)c(C#N)c2)cc1OCCc1ccc2c(n1)NCCC2 (centres unmarked) [Example 7]
ASSIGNED LABEL: YES

Inquiry: Quick check: does COCC1(c2cc(Cl)cc(C(CC(=O)O)Cc3cc(OCCc4ccc5c(n4)NCCC5)n(C)n3)c2)CCOCC1 (centres unmarked) [Example 29] have IC50 under 0.09 µM?
Reply text: YES

Inquiry: Quick check: does COc1ccc(C(N)=O)cc1C(CC(=O)O)Cc1cc(OCCc2ccc3c(n2)NCCC3)n(C)n1 (centres unmarked) [Example 47, trifluoroacetate] have IC50 under 0.09 µM?
Reply text: YES

Source listed as patent US11306084B2.
